Experiment: clinical
Settings: human, in vivo, 25 mg, half-life
MEASUREMENT KIND: half-life

[[record]]
smiles_string = "Cc1cc2c(C(N)=O)cccc2n1-c1nc2c(c(NCc3ccccc3)n1)CCCN2"
measurement_kind = "half-life"
observed_result = "3 to 4 h"


====

System: CTG-2242
Test: Ex-vivo cytotoxicity by Cell Titer Glo
Type: cell-based
Settings: Homo sapiens, 144 h; CTG-2242, 6 days
Method: Acute myelogenous leukemia (AML) is the most common acute leukemia in adults. A hematologic cancer, the disease is highly heterogeneous, with multiple subtypes. […] Triplicate wells with media only and duplicate wells of vehicle (0.2% DMSO) were used as negative controls. […] To measure proliferation, untreated cells at days 0 and 6 were evaluated via Cell Titer Glo. Protocol: • 1. […] 100 μL/well Cell Titer Glo was added to each well and incubated for 10 minutes before plate reading. • 6. […]
MEASUREMENT KIND: IC50 (nM)

[[record]]
smiles_string = "Cc1cc2c(C(N)=O)cccc2n1-c1nc2c(c(NCc3ccccc3)n1)CCCN2"
unit_label = "nM"
observed_result = 501


====

Test system: CTG-2234
Assay: Ex-vivo cytotoxicity by Cell Titer Glo
Type: cell-based
Conditions: Homo sapiens, 144 h; CTG-2234, 6 days
MEASUREMENT KIND: IC50 (nM)

[[record]]
smiles_string = "Cc1cc2c(C(N)=O)cccc2n1-c1nc2c(c(NCc3ccccc3)n1)CCCN2"
measurement_kind = "IC50"
observed_result = 485


====

Test system: 30 passage 1 (P1) models of human acute myeloid leukemia
Assay: Ex-vivo cytotoxicity by Cell Titer Glo, all models
Assay type: cell-based
Conditions: 144 h, single agent, 6 days, read-out: IC50s in these models
Procedure: Acute myelogenous leukemia (AML) is the most common acute leukemia in adults. A hematologic cancer, the disease is highly heterogeneous, with multiple subtypes. […] Triplicate wells with media only and duplicate wells of vehicle (0.2% DMSO) were used as negative controls. […] To measure proliferation, untreated cells at days 0 and 6 were evaluated via Cell Titer Glo. Protocol: • 1. […] 100 μL/well Cell Titer Glo was added to each well and incubated for 10 minutes before plate reading. • 6. […]
MEASUREMENT KIND: IC50

[[record]]
molecule = "Cc1cc2c(C(N)=O)cccc2n1-c1nc2c(c(NCc3ccccc3)n1)CCCN2 [Compound 1]"
observed_result = "0.2 to 0.8 µM"


====

Tested on: CTG-2700
Assay: Ex-vivo cytotoxicity by Cell Titer Glo
Type: cell-based
Conditions: Homo sapiens, 144 h; CTG-2700, 6 days
pIC50: −log10 of the molar value.
MEASUREMENT KIND: pIC50

[[record]]
smiles_string = "Cc1cc2c(C(N)=O)cccc2n1-c1nc2c(c(NCc3ccccc3)n1)CCCN2"
observed_result = 6.41


====

Tested on: CTG-2228
Assay: Ex-vivo cytotoxicity by Cell Titer Glo
Format: cell-based
Conditions: Homo sapiens, 144 h; CTG-2228, 6 days
MEASUREMENT KIND: IC50

[[record]]
smiles_string = "Cc1cc2c(C(N)=O)cccc2n1-c1nc2c(c(NCc3ccccc3)n1)CCCN2"
observed_result = "568 nM"


====

Assay: clinical
Details: human, in vivo, 25 mg, t1/2
MEASUREMENT KIND: half-life (h)

[[record]]
smiles_string = "Cc1cc2c(C(N)=O)cccc2n1-c1nc2c(c(NCc3ccccc3)n1)CCCN2"
observed_result = 2.61

